system: ATP; test: switch fluorescence ratio, 500 uM ATP over buffer (Cy3 cluster intensity, sum of 5 cycles each) (fold (ratio)); higher = stronger signal-on switching upon ATP binding; sequences stand for … in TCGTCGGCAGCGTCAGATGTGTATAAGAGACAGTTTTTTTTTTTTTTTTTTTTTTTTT…TC; settings: aptamer strand: ATP DNA aptamer (quencher-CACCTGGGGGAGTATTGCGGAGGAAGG + anchor), 100 nM annealed; ATP concentration: 500 uM;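 also: ATP exposure 15 min at 22 °C before imaging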
Recorded switch fluorescence ratio by entry
Please respond with just the number, no unit label.

Some solved cases for reference:
TGCTCACGGT | 1.02
CATCTGGTGC | 1.63

Tell me measured switch fluorescence ratio for ACTTTGCTCT please.
1.03

Consider the sequence TTTGTGGCGT and give its recorded switch fluorescence ratio.
0.984

For the sequence AGATGGGGG , report switch fluorescence ratio.
0.948

Fill in switch fluorescence ratio for record TTGTTTCGTT
0.98

Look up and state reported switch fluorescence ratio for ATAGGATTGC
0.982

Item AAATTGCTGT : provide switch fluorescence ratio
1.01

State, in one line, measured switch fluorescence ratio of GGGTCTTTTC
1.11

Annotate the sequence TCGTGGGGGC with its measured switch fluorescence ratio.
1.07

Answer with the recorded switch fluorescence ratio for the sequence listed here: TTAGTAGGGG
1

Respond only with switch fluorescence ratio recorded for AATTACTTTA
1.03

====

Catalogue of sequences with associated switch fluorescence ratio
system: ATP; assay: switch fluorescence ratio, 500 uM ATP over buffer (Cy3 cluster intensity, sum of 5 cycles each) (fold (ratio)); higher = stronger signal-on switching upon ATP binding; sequences stand for … in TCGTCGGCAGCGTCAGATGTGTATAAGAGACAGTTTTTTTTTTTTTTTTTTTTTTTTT…TC; conditions: aptamer strand: ATP DNA aptamer (quencher-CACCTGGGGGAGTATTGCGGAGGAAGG + anchor), 100 nM annealed; ATP concentration: 500 uM;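 also: ATP exposure 15 min at 22 °C before imaging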
Answer field: number only, no words.

GAGTAGTGGG | 0.982
TGGACGGGTT | 1.02
GTTCTTACTT | 0.973
TTGTACCATA | 1.1
GGTGGGTATT | 0.966
GGGAATCGGG | 1
GCGGGGGCGT | 1
CGTTCAAGTA | 0.973
ATTCGGGGCT | 1
GGTGGGAGTG | 1.37

Output reported switch fluorescence ratio of the sequence TTTGGAGGGC on ATP.
1.06

Find the measured switch fluorescence ratio of CGTTATATTT with ATP as test system.
1.07

====

system: ATP; test: switch fluorescence ratio, 500 uM ATP over buffer (Cy3 cluster intensity, sum of 5 cycles each) (fold (ratio)); higher = stronger signal-on switching upon ATP binding; sequences stand for … in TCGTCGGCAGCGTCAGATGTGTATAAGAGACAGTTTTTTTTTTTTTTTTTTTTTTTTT…TC; settings: aptamer strand: ATP DNA aptamer (quencher-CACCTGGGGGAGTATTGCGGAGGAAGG + anchor), 100 nM annealed; ATP concentration: 500 uM;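 also: ATP exposure 15 min at 22 °C before imaging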
quantity: switch fluorescence ratio
Would you mind answering with just the numeric figure?

Please report switch fluorescence ratio for the following sequence: GTGAGCCACG
0.993

Indicate the recorded switch fluorescence ratio value for this sequence: GGTAAAGGCG
0.962

Give the reported switch fluorescence ratio for this sequence. GGGTGGGGAT
1

====

Reported switch fluorescence ratio values follow for various sequences
tested on: ATP; assay: switch fluorescence ratio, 500 uM ATP over buffer (Cy3 cluster intensity, sum of 5 cycles each) (fold (ratio)); higher = stronger signal-on switching upon ATP binding; sequences stand for … in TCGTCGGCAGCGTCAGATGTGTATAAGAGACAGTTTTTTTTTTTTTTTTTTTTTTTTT…TC; settings: aptamer strand: ATP DNA aptamer (quencher-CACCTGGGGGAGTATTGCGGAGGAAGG + anchor), 100 nM annealed; ATP concentration: 500 uM;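 also: ATP exposure 15 min at 22 °C before imaging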
I only need the number, thanks.

TACTAAGTTG | 1.07
GGGGTTGGGG | 0.994
AGCGGGGAGG | 1.03
TTTACATTGG | 1.01
CAAGAGAATG | 0.999
AGACACTTAA | 1.04
TTAGGAGTGT | 0.986
GACGGCTCAG | 1

Consider now this further sequence.
Look up and report switch fluorescence ratio, with ATP as system, for CATTGGGTTG
0.963

====

tested on: ATP; experiment: switch fluorescence ratio, 500 uM ATP over buffer (Cy3 cluster intensity, sum of 5 cycles each) (fold (ratio)); higher = stronger signal-on switching upon ATP binding; sequences stand for … in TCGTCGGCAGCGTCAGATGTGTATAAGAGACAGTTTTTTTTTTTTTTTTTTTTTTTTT…TC; conditions: aptamer strand: ATP DNA aptamer (quencher-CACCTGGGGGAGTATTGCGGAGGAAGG + anchor), 100 nM annealed; ATP concentration: 500 uM;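 also: ATP exposure 15 min at 22 °C before imaging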
quantity: switch fluorescence ratio
The response must contain the number and no unit.

Examples with their reported switch fluorescence ratio follow.
ACAGTTTTTT | 0.989
GGGGAAGGAT | 1.05
AAAGTGGTCT | 1
GATGATGTAT | 1.01
AGTTGTCAGT | 0.983
GCACTTGGTC | 0.989
AGAAGTGTTT | 1.02
TGTTTCGTTT | 1

Query switch fluorescence ratio for GGTGCGCGGA
1.03

Fill in switch fluorescence ratio for record GTTGGAAGGT
1.02

====

Consider the following sequences and their measured switch fluorescence ratio readings.
tested on: ATP; assay: switch fluorescence ratio, 500 uM ATP over buffer (Cy3 cluster intensity, sum of 5 cycles each) (fold (ratio)); higher = stronger signal-on switching upon ATP binding; sequences stand for … in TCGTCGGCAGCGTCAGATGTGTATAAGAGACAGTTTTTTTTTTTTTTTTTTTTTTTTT…TC; settings: aptamer strand: ATP DNA aptamer (quencher-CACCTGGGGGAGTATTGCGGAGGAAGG + anchor), 100 nM annealed; ATP concentration: 500 uM;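 also: ATP exposure 15 min at 22 °C before imaging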
// return just the number, without any unit appended

Reference set, count: 10
AGTGATATTT | 1.01
AAAGGCATGT | 1.04
TCTTGAGGGG | 0.982
TGGGGGTATC | 0.978
TGATCCGGAG | 1.08
GACCAAAGGG | 1.03
GGGTCGGGAG | 0.979
AGGCCCGGGC | 0.958
AGGGTATCTC | 1.08
CCGTTTAGAT | 1.01

# return recorded switch fluorescence ratio for entry TTTGCCTCAA
1.01

Tell me switch fluorescence ratio reported for GGGATCTAGG
0.974

Give the reported switch fluorescence ratio for this sequence. TCAAGGCACC
1.1

In one line, give reported switch fluorescence ratio of the entry AGATTACCTT .
1.06

Let me know recorded switch fluorescence ratio for ATAAGCTTCT , thanks.
1.09

Fill in reported switch fluorescence ratio for this entry: GCCTGAAAGC
0.991

Output measured switch fluorescence ratio for this item: TGGAAACCGG
1.01

====

system: ATP; assay: switch fluorescence ratio, 500 uM ATP over buffer (Cy3 cluster intensity, sum of 5 cycles each) (fold (ratio)); higher = stronger signal-on switching upon ATP binding; sequences stand for … in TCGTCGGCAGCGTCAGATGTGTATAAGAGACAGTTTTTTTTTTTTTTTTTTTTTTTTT…TC; conditions: aptamer strand: ATP DNA aptamer (quencher-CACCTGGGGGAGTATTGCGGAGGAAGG + anchor), 100 nM annealed; ATP concentration: 500 uM;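 also: ATP exposure 15 min at 22 °C before imaging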
Would you please tag the item yes (1) when its switch fluorescence ratio is 1 or above, and no (0) when it is below?

# example entries with known answers
TACGTCATTA | yes (1)
TGGTGACTAG | no (0)
CCTATGTGCT | yes (1)
GCTACCGTTT | yes (1)
TGTTTGAGG | no (0)
TTCCTCCTTC | yes (1)
GTCAGTATAA | yes (1)
GACACACCCG | yes (1)

switch fluorescence ratio >= 1 for TTTATGAGAG ?
yes (1)

Item TTGACAGCGA with switch fluorescence ratio of 1 or above?
yes (1)

I'd appreciate it if you could say whether GGGAAAAATC has switch fluorescence ratio at least equal to 1.
yes (1)

Determine whether measured switch fluorescence ratio meets or exceeds 1 for TTTGCGTTTC
yes (1)

Hello, I need to know if AACTAACGTG has measured switch fluorescence ratio not below 1. Thanks!
yes (1)

Form field: switch fluorescence ratio at least 1? Entry: GTTTGCGTTA
no (0)

Is it the case that GTTGTAGGTT has switch fluorescence ratio reaching or exceeding 1?
no (0)

Say whether TTTATGCCAG shows switch fluorescence ratio of 1 or more.
no (0)

====

We begin with a simple list: items and their reported switch fluorescence ratio.
test system: ATP; assay: switch fluorescence ratio, 500 uM ATP over buffer (Cy3 cluster intensity, sum of 5 cycles each) (fold (ratio)); higher = stronger signal-on switching upon ATP binding; sequences stand for … in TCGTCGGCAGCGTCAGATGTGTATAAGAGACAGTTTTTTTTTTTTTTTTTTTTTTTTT…TC; settings: aptamer strand: ATP DNA aptamer (quencher-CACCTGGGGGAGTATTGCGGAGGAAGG + anchor), 100 nM annealed; ATP concentration: 500 uM;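 also: ATP exposure 15 min at 22 °C before imaging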
# print the numeric value only

Previously resolved entries follow.
TATGGCGGTG | 0.989
AATAACAAAA | 0.995
TTTTGGGCCA | 1.04
TAATTCCCGT | 1.01
CATCTGGGCA | 1.03
ATCCGCGCGT | 1
TAGGGTTTAA | 1.01
CAGCATATAT | 2.32
AGTATATAGT | 1
TTTTAATGCG | 1.04

Recall and state the measured switch fluorescence ratio for GAACGTCTGC .
1.08

Fill in reported switch fluorescence ratio for this entry: TATGAAAGGG
1.13

Return switch fluorescence ratio (reported value) for this sequence: GGTTTTCCAG
0.946

State, in one line, measured switch fluorescence ratio of TTAACCGGTA
1.02

Check the records and state switch fluorescence ratio for CGTTACTAAC
1.12

Identify measured switch fluorescence ratio corresponding to TTACTATCTG
1.01

Given the sequence TGTTTAACAG , write its reported switch fluorescence ratio.
1.03

Identify measured switch fluorescence ratio corresponding to TCTTTGACAG
1.02

Given the sequence TTAGCCGGAC , write its reported switch fluorescence ratio.
1.05

Indicate its recorded switch fluorescence ratio; the sequence in question is CAAAGGGATA
1

Check the records and state switch fluorescence ratio for AAAATTATTT
1.01

Retrieve switch fluorescence ratio measured for TGATGTTAAA and print it.
0.998

Give switch fluorescence ratio for the following sequence: TGAGGTTTAG
1.02

Could you please provide reported switch fluorescence ratio for GCCAGCAAGC ? Thanks!
2.25

Provide one value: measured switch fluorescence ratio of CCGCAGGGTA
1.26

Using the record for TAGGGGTCTG , state its measured switch fluorescence ratio.
1.03

Given TTTAACATCA , respond with its switch fluorescence ratio.
0.984
